Measured values drawn from patent US10544143B2 for this set.

Molecular target: human TLR8 (Homo sapiens (Human), UniProt Q9NR97)
Sequence (Q9NR97 27-1041): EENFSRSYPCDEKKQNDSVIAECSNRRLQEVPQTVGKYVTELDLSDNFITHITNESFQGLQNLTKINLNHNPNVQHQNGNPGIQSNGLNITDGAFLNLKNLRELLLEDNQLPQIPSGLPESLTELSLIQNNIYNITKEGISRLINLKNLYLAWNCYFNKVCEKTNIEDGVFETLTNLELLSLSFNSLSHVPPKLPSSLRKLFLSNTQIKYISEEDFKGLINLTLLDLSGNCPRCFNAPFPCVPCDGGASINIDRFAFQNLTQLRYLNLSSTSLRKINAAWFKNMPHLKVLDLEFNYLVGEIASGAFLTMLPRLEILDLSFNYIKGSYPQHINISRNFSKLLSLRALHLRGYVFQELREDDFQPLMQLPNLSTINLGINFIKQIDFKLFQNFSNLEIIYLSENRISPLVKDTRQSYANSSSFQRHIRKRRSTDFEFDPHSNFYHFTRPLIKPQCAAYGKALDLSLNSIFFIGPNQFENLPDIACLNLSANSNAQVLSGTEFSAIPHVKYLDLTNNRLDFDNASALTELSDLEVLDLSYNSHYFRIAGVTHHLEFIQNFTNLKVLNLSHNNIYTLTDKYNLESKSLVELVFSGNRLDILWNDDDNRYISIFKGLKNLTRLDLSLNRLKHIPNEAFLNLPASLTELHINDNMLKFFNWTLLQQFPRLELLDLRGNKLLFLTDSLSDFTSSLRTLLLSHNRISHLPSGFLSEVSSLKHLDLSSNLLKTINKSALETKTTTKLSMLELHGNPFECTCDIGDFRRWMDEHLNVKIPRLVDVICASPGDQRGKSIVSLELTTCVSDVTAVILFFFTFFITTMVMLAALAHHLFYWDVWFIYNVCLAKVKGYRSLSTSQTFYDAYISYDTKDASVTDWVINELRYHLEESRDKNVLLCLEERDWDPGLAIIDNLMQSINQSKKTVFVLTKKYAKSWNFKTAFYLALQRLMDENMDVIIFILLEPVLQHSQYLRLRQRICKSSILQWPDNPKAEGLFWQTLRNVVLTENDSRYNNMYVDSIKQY
Experiment: TLR8 inhibition reporter assay (HEK-Blue SEAP);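 also: SEAP driven by IFN-β minimal promoter carrying NF-κB and AP-1 sites, compounds dosed 0.05 nM to 50 µM for 22 h, inhibition scaled between agonist-plus-DMSO and reference-inhibitor wells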
Conditions: read-out: TLR8 IC50; HEK-Blue cells overexpressing human TLR8, SEAP reporter, R848 15.9 μM
pIC50: −log10 of the molar value.
Measure Name: pIC50

Cc1c(-c2[nH]c3ccc(N4CC5(CN(CC(=O)N(C)C)C5)C4)nc3c2C(C)C)cn2ncnc2c1C [Example 742] :: 8.51

P = COc1cc(-c2[nH]c3ccc(C4CCC(N(CC#N)CC#N)C4)nc3c2C(C)C)cn2ncnc12 (stereo not drawn) [Example 713]
Q = COc1cc(-c2[nH]c3ccc(C4CC(N(C)C)C4)nc3c2C(C)C)cn2ncnc12 (stereo not drawn) [Example 629]
R = COc1cc(-c2[nH]c3ccc(C4CC(N)C4)nc3c2C(C)C)cn2ncnc12 (stereo not drawn) [Example 620]
Sort the 3 molecules by pIC50; largest first, smallest last. List the labels, following the order given in the request.
R, Q, P
